study.target: Cytochrome P450 2C9 (Homo sapiens) (UniProt P11712)
Sequence (P11712 whole entry, looked up): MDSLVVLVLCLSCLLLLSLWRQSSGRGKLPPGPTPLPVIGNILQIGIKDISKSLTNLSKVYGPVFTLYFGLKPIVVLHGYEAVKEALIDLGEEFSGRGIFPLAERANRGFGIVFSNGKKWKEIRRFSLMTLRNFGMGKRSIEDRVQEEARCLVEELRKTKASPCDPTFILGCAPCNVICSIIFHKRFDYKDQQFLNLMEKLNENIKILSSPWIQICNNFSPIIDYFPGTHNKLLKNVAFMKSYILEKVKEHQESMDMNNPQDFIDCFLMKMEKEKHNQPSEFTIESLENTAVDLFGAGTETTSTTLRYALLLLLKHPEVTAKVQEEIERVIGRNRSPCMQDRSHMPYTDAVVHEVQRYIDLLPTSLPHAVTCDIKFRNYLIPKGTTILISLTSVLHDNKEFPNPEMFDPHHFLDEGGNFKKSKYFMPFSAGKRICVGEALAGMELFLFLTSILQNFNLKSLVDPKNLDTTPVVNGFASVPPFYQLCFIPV
experiment: qHTS Assay for Inhibitors and Substrates of Cytochrome P450 2C9 (AID 883); further: nearly all actives have a fitted effect of over 60% in size
settings: recombinant CYP2C9, luciferin-H luminescence, 60 min; series mostly up to 57.1 µM
Results filed as inconclusive are left out. Active and inactive are the calls of the source. The call rests on the fitted dose curve; in most records, active means well fitted inhibition curve with a large enough effect; inconclusive means small, poorly fitted or top-dose-only effect; inactive means no such curve, though single readings can be large or run the other way.
Classes used: TRUE (active), FALSE (inactive)

O=C(c1cc(C(F)(F)F)cc(C(F)(F)F)c1)N1CCC2(CC1)CN(c1ncccn1)C2 : FALSE
O=c1c(-c2cccc(F)c2)nc2cncnc2n1Cc1ccccc1Cl : TRUE
Cc1noc(C)c1C(=O)N1CCC2(CCN(Cc3ccccc3)CC2)CC1 : FALSE
O=C(c1cccc(F)c1)N1CCC2(CC1)CN(c1ccncc1)C2 : TRUE
COc1ccc2[nH]cc(CCNc3ncnc4ccc(-c5ccc(C(=O)N(C)C)cc5)cc34)c2c1 : TRUE
CN(C)c1ncc2nc(-c3cc(F)cc(F)c3)c(=O)n(Cc3ccc(F)cc3)c2n1 : FALSE
COc1ccc(-n2c(=O)c(-c3cn(C)c4ccccc34)nc3cncnc32)cc1 : FALSE
Cc1c(CC(C)(C)C(=O)O)n(Cc2ccc(Cl)cc2)c2ccc(F)cc12 : TRUE
C[C@@]12CCC(=O)C=C1CC[C@@H]1[C@@H]2[C@H](O)C[C@]2(C)[C@@H]1CC[C@]2(O)C(=O)CO : FALSE
O=C(Nc1ccccc1)N1CC2(CCN(C(=O)c3cc(C(F)(F)F)cc(C(F)(F)F)c3)CC2)C1 : FALSE

###

experiment: Stat Signaling Pathway (AID 446);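 further: ME-180 cervical cancer cells given 40 pM IL-6 alongside compound; SIE-controlled beta-lactamase reporter measured as 460/530 nm FRET emission ratio; on the % scale 0 is the no-effect control and ±100 the full control effect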
settings: ME-180 (cervical carcinoma) SIE beta-lactamase reporter, IL-6 stimulated, 5 h; at 7.69 µM (top of the series) unless noted
Records with an inconclusive call do not appear. Active and inactive are the calls of the source. Calls follow the shape of the dose curve; as a rule, active = well fitted curve in either direction with a large enough effect (not every such curve was filed as active); inconclusive = small, poorly fitted or top-dose-only effect, or another doubt; inactive = flat fitted curve, though single readings scatter.
Outcomes: true (1) for active, false (0) for inactive

O=C(c1cc(C(F)(F)F)cc(C(F)(F)F)c1)N1CCC2(CCCN(c3ccncc3)C2)CC1 : false (0)
Cc1ccccc1-c1nc(NCc2cccnc2)c2ccccc2n1 : false (0)
CN(C)c1ccc(-c2nc(NCc3cccnc3)c3ccccc3n2)cc1 : false (0)
O=c1c(-c2ccc(F)cc2)nc2cncnc2n1Cc1ccccc1 : false (0)
O=C(c1csnn1)N1CCC2(CCCN(c3ccc(-c4ccccc4)cc3)C2)CC1 : false (0)
COCC(=O)N1CCC[C@@]2(CCN(c3ccccn3)C2)C1 : false (0)
COc1ccc(-n2c(=O)c(-c3cccs3)nc3cnc(Nc4cccc(OC)c4)nc32)cc1 : false (0)
O=C(c1cccc(F)c1)N1CCC[C@@]2(CCN(c3ccccc3)C2)C1 : false (0)
COc1ccc(Oc2ncc3nc(-c4ccc(Cl)cc4)c(=O)n(C)c3n2)cc1 : false (0)
CC(=O)N1CCC2(CCCN(Cc3cc(C(F)(F)F)cc(C(F)(F)F)c3)C2)CC1 : false (0)
COc1ccc2[nH]cc(CCNc3ccnc(-c4ccoc4)n3)c2c1 : false (0)
N#Cc1cccc(-c2nccc(NCc3cccs3)n2)c1 : false (0)
Cc1nc2cnc(Oc3cccc(Cl)c3)nc2n(CCc2ccccc2)c1=O : false (0)
N#Cc1cccc(NC(=O)N2CC[C@@]3(CCCN(C(=O)c4csnn4)C3)C2)c1 : false (0)
CCNc1ncc2nc(-c3cc(F)cc(F)c3)c(=O)n(Cc3cccs3)c2n1 : true (1)
CS(=O)(=O)Nc1cccc(-c2ccc3ncnc(NCc4cccs4)c3c2)c1 : false (0)
COc1ccc(-c2nc3cnc(Oc4ccccc4)nc3n(Cc3cccs3)c2=O)cc1 : false (0)
COc1ccccc1CN1CCCC2(CCN(C(=O)c3csnn3)CC2)C1 : false (0)
Cc1noc(C)c1-c1nccc(N(C)C)n1 : false (0)
O=C(c1ccco1)N1CCC2(CCCN(c3ccncc3)C2)CC1 : false (0)
COc1ccc(CNc2ccnc(-c3ccccc3Cl)n2)c(OC)c1 : false (0)
COc1cccc(Cn2c(=O)c(CCc3ccccc3)nc3cnc(OC)nc32)c1 : false (0)

###

study.target: Dual specificity protein kinase CLK4 (Homo sapiens)
experiment: qHTS Assay for Inhibitors of CDC-like Kinase 4 (Kinase-Glo Assay) (AID 1770); further: nearly all actives have a fitted effect of over 65% in size
settings: recombinant Clk4, Kinase-Glo ATP depletion luminescence; series mostly up to 66.7 µM
Inconclusive results are not listed. Activity calls are given as the source filed them. Calls come from the whole dose curve; as a rule, active = well fitted inhibition curve with a large enough effect; inconclusive = small, poorly fitted or top-dose-only effect; inactive = flat fitted curve, though single readings scatter.
Labels: active, inactive

COc1ccc2[nH]cc(CCNc3nc(-c4cccc(C#N)c4)nc4ccccc34)c2c1 : active
COc1cccc(Cn2c(=O)c(-c3ccc(F)cc3)nc3cnc(N4CCOCC4)nc32)c1 : inactive
COc1ncc2nc(-c3ccc(F)cc3)c(=O)n(Cc3ccc(F)cc3)c2n1 : inactive
Cc1ccccc1-c1nc(N(C)Cc2ccco2)c2ccccc2n1 : active
O=c1c(-c2ccccc2)nc2cnc(N3CCOCC3)nc2n1Cc1cccs1 : inactive
COc1ccc(CNc2ccnc(-c3cccc(C#N)c3)n2)c(OC)c1 : active
COc1ccc(-n2c(=O)c(-c3cccs3)nc3cnc(Nc4ccccc4)nc32)cc1 : inactive
COc1ccc2[nH]cc(CCNc3ccnc(-c4ccoc4)n3)c2c1 : active
CN(Cc1ccco1)c1nc(-c2ccoc2)nc2ccccc12 : inactive
Cc1cnc(CNc2ncnc3ccc(-c4cccc(NS(C)(=O)=O)c4)cc23)cn1 : active
c1ccc(CNc2ncncc2-c2cccnc2)cc1 : inactive
CC(=O)NCCNc1ncnc2ccc(-c3ccccc3C)cc12 : active
COc1ccccc1CNc1ccnc(-c2ccccc2OC)n1 : inactive
COc1cccc(-c2nccc(N(C)Cc3ccco3)n2)c1 : active
Cn1c(=O)c(-c2ccc(F)cc2)nc2cnc(Nc3ccccc3)nc21 : inactive
O=c1c(-c2cccc(F)c2)nc2cncnc2n1Cc1ccccc1Cl : inactive
FC(F)(F)c1ccccc1-c1cncnc1-n1ccnc1 : inactive
FC(F)(F)c1ccccc1-c1ccc2ncnc(NCCN3CCOCC3)c2c1 : inactive
O=c1c(-c2cccs2)nc2cnc(Oc3ccccc3)nc2n1Cc1cccs1 : inactive
Cc1ccccc1-c1cncnc1N1CCN(C)CC1 : inactive
COc1ccc(-n2c(=O)c(CCc3ccccc3)nc3cnc(N4CCOCC4)nc32)cc1 : inactive
c1ccc2c(N3CCOCC3)nc(-c3ccoc3)nc2c1 : inactive
CN(C)c1ncc2nc(-c3ccc(Cl)cc3)c(=O)n(Cc3ccc(F)cc3)c2n1 : inactive
COCCn1c(=O)c(CCc2ccccc2)nc2cnc(N3CCOCC3)nc21 : inactive
Cc1cnc(CNc2cc(-c3cccc(C#N)c3)ncn2)cn1 : active
CCNc1ncc2nc(-c3cn(C)c4ccccc34)c(=O)n(CCC#N)c2n1 : inactive
Cn1c(=O)c(-c2ccc(F)c(F)c2)nc2cncnc21 : inactive
CN(C)c1ccc(-c2cncnc2N(C)Cc2ccco2)cc1 : active
CN1CCN(c2ncc3ncc(=O)n(-c4ccccc4)c3n2)CC1 : inactive
Clc1ccccc1-c1ccc2ncnc(NC3CCNCC3)c2c1 : active
COc1ccc2[nH]cc(CCNc3cc(-c4ccc5c(c4)OCO5)ncn3)c2c1 : active
O=c1c(-c2cc(F)cc(F)c2)nc2cncnc2n1Cc1ccccc1Cl : inactive
Clc1ccccc1-c1cc(NCCN2CCOCC2)ncn1 : inactive
CN1CCN(c2ncc3nc(-c4cn(C)c5ccccc45)c(=O)n(CCc4ccccc4)c3n2)CC1 : inactive
c1ccc(CNc2ncnc3ccc(-c4ccoc4)cc23)cc1 : active
CN(C)Cc1ccccc1-c1nccc(N(C)Cc2ccco2)n1 : inactive
N#Cc1cccc(-c2nccc(NCc3cccnc3)n2)c1 : active
CN(C)c1ncc2nc(-c3ccccc3)c(=O)n(Cc3cccs3)c2n1 : inactive
CN(C)C(=O)c1ccc(-c2nccc(N(C)Cc3ccco3)n2)cc1 : inactive
O=c1c(-c2ccc(F)cc2)nc2cncnc2n1Cc1ccccc1 : inactive
COc1ccc(-n2c(=O)c(-c3ccccc3)nc3cncnc32)cc1 : inactive
COc1ccc(CNc2ncnc3ccc(-c4ccc(C(=O)N(C)C)cc4)cc23)c(OC)c1 : inactive
Cn1c(=O)c(-c2ccccc2)nc2cnc(Nc3ccccc3)nc21 : inactive
CNc1ncncc1-c1ccccc1C(F)(F)F : inactive
CN1CCN(c2ncc3nc(-c4ccc(Cl)cc4)c(=O)n(Cc4ccc(F)cc4)c3n2)CC1 : inactive
c1csc(CNc2ncncc2-c2ccoc2)c1 : inactive

###

experiment: qHTS Assay for Lipid Storage Modulators (AID 1519); further: on the % scale 0 is the no-effect control and ±100 the full control effect
settings: Drosophila S3 cells, BODIPY lipid droplet/cell ratio, laser cytometry; at 57.5 µM (top of the series); cells loaded with oleic acid
Protocol: NIH Molecular Libraries Probe Production Centers Network [MLPCN] NIH Chemical Genomics Center [NCGC] Assay Submitter (PI): Beller, Mathias; Max-Planck-Institut fur Biophysikalische Chemie […] We dispensed 4 uL of cells at 1.25 x 10^6 cells/mL into LoBase Aurora COC 1,536-well plates (black walled, clear bottom) with a bottle-valve solenoid-based dispenser (Aurora) to obtain 5,000 cells/well. […] The ratio of the total intensity in PMT channel 1 over total intensity of channel 3 was also calculated. […]
Records with an inconclusive call do not appear.
result.type: activity change, negative = inhibition (%)

Cn1cccc1C(=O)N1CCC2(CCN(C(=O)Nc3ccccc3)CC2)CC1 : 5.15
O=C(c1ccncc1)N1CCC2(CCCN(C(c3ccccc3)c3ccccc3)C2)CC1 : 2.92
Cc1noc(C)c1-c1nc(N2CCOCC2)c2ccccc2n1 : 2.85
Cc1cccc(CNc2ncnc3ccc(-c4c(C)noc4C)cc23)c1 : -3.45
COc1ccccc1CN1CCC2(CC1)CCN(C(=O)c1ccco1)CC2 : 3.05
N#Cc1cccc(-c2ccc3ncnc(NCc4cccnc4)c3c2)c1 : 7.68
CN1CC[C@@]2(CCCN(S(=O)(=O)c3ccccc3)C2)C1 : 5.6
N#Cc1ccc(CN2CC3(CCN(C(=O)c4ccco4)CC3)C2)cc1 : 4.77
O=C(c1csnn1)N1CCC2(CC1)CCN(c1cccc(-c3ccccc3)c1)CC2 : -6.94
O=C(c1cccc(F)c1)N1CCC2(CCCN(Cc3ccccc3)C2)CC1 : -8.15
COCC(=O)N1CCC2(CC1)CN(c1cccc(-c3ccccc3)c1)C2 : 3.02
Cc1nc2cnc(N3CCN(C)CC3)nc2n(C[C@H]2CCCO2)c1=O : 2.98
COc1ccccc1CNc1ncnc2ccc(-c3ccc(N(C)C)cc3)cc12 : 3.4
COc1ccccc1CNc1ncnc2ccc(-c3cccc(C#N)c3)cc12 : -12.8
COc1ccc(C(=O)N2CCC3(CCCN(c4ccccc4)C3)CC2)cc1 : -17.3
COCCn1c(=O)c(C)nc2cnc(Nc3cccc(OC)c3)nc21 : -6.39
O=S(=O)(c1ccccc1)N1CCC[C@@]2(CCN(c3ncccn3)C2)C1 : 4.79
CCCC1O[C@@H]2C[C@H]3[C@@H]4CCC5=CC(=O)C=C[C@]5(C)C4[C@@H](O)C[C@]3(C)[C@]2(C(=O)CO)O1 (some centres undefined) : 0.423
CC#C[C@]1(O)CC[C@H]2C3CCC4=CC(=O)CCC4=C3[C@@H](c3ccc(N(C)C)cc3)C[C@@]21C (some centres undefined) : 0.852
O=C(c1cc(C(F)(F)F)cc(C(F)(F)F)c1)N1CCC2(CCCN(c3ccncc3)C2)CC1 : 5.04
CS(=O)(=O)Nc1cccc(-c2ccc3ncnc(NCc4cccnc4)c3c2)c1 : 10.4
COc1cccc(-c2ccc3ncnc(NCc4ccccc4OC)c3c2)c1 : 5.94
c1ccc(C(c2ccccc2)N2CCCC3(CCNCC3)C2)cc1 : -1.73
N#CCCn1c(=O)c(-c2ccc(Cl)cc2)nc2cnc(Oc3cccc(Cl)c3)nc21 : 4.13
